# Test system: CCRIS mutagenicity, Ames/micronucleus/aberration tests
# measurement-description: CCRIS mutagenicity studies
# condition-details: Test System: AMES SALMONELLA TYPHIMURIUM; Strain/Indicator: TA98; Metabolic Activation: NONE; Method: PREINCUBATION
The source made the active and inactive calls. No rule for the calls is given here.
Classes used: active, inactive

In [3]: df
Out[3]:
                               smiles_entry       cat
0  c1ccc2c(c1)-c1cc3ccccc3cc1[C@@H]1N[C@H]21    active
1                   CCNc1nc(Cl)nc(NC(C)C)n1  inactive
2                  O=NN(CCCl)C(=O)NC1CCCCC1  inactive
3           O=[N+]([O-])c1ccc2oc3ccccc3c2c1    active

----------
# System: CCRIS mutagenicity, Ames/micronucleus/aberration tests
# measurement-description: CCRIS mutagenicity studies
# condition-details: Test System: AMES SALMONELLA TYPHIMURIUM; Strain/Indicator: TA1535; Metabolic Activation: RAT, LIVER, S-9, AROCLOR 1254; Method: STANDARD PLATE
Activity calls are given as the source filed them. The rule behind the calls is not given here. Where a SMILES comes first, the peptide text is derived from it.
Classes used: active, inactive

In [3]: df
Out[3]:
                                   compound       cat
0                      O=c1cn[nH]c(=O)[nH]1  inactive
1          CC(C)CC(=O)OCc1cocc2c(C=O)ccc1-2  inactive
2  CC(C)C[C@H](NC(=O)[C@H](Cc1ccccc1)NC(=O)CNC(=O)CN)C(=O)O (H-GGFL-OH)  inactive
3  CC(C)CC(NC(=O)COc1ccc(Cl)cc1Cl)C(=O)O (stereo not drawn)  inactive
4                    O=C(CCl)c1ccc(Cl)cc1Cl  inactive
5                                      O=NO    active
6                              O=CC=C(Cl)Cl    active
7  CC(C)=CC1C(C(=O)OCc2cccc(Oc3ccccc3)c2)C1(C)C (stereo not drawn)  inactive

----------
# Test system: CCRIS mutagenicity, Ames/micronucleus/aberration tests
# measurement-description: CCRIS mutagenicity studies
# condition-details: Test System: AMES SALMONELLA TYPHIMURIUM; Strain/Indicator: TA1537; Metabolic Activation: RAT, LIVER, S-9, AROCLOR 1254; Method: STANDARD PLATE
Calls of active or inactive are those of the source. No rule for the calls is given here. Where a SMILES comes first, the peptide text is derived from it.
Classes used: y = active, n = inactive

>>> print(df.to_string())
                                   compound  cat
0                     C=C(C)C(=O)OCC(C)(C)C    n
1  CC(C)C[C@H](NC(=O)[C@H](Cc1ccccc1)NC(=O)CNC(=O)CN)C(=O)O (H-GGFL-OH)    n
2       O=c1c(Cl)c(Cl)cnn1S(=O)(=O)c1ccccc1    n
3  O=C1NC(=O)C(c2ccccc2)(c2ccc(O)cc2)N1 (centres undefined)    n
4    c1ccc2c(c1)-c1ccc3ccc4cccc5cc-2c1c3c45    y
5         Cc1ccccc1NS(=O)(=O)c1cccc2cccnc12    n
6                       c1ccc(-c2ccccc2)cc1    n
7                          COC(=O)CCC(=O)OC    n
8                 O=S(=O)(NO)c1cccc2cccnc12    n
